Tgt: UniProt:Q9UM07
Sequence (Q9UM07 whole entry): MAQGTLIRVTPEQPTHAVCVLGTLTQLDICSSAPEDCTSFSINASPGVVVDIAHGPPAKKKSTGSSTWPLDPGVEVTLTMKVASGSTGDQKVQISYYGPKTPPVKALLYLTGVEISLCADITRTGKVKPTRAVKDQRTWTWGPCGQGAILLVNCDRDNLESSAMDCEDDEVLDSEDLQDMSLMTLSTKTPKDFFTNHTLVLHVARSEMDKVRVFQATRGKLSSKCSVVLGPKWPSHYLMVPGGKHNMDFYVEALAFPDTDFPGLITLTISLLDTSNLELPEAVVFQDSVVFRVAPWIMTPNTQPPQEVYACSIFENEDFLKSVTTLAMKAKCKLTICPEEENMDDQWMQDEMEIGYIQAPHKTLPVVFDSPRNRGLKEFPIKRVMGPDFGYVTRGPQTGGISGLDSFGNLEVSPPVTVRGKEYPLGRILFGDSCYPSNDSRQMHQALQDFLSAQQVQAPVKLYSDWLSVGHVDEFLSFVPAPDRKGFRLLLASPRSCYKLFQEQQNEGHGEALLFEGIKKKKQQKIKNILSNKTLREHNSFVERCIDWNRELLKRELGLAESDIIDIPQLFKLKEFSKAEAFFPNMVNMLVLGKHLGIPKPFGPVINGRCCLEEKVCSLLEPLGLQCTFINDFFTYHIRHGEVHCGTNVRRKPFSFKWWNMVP
Method description: RFMS Human PAD4 Functional Assay
Format: biochemical
Condition info: hPAD4 RFMS IC50, human PAD4, rapid-fire mass spectrum (RFMS) assay; 5 nM hPAD4, 250 μM BAEE
Under this convention, yes denotes IC50 strictly below 80 nM and no denotes IC50 at or above 80 nM.

The following compounds have reported results that may help.
Compound	Group label
COc1cc(C(=O)N2CC3CCC2[C@@H]3N)cc2nc(-c3cc4cccc(-c5ccoc5)c4n3CC3CC3)n(C)c12 (some centres unmarked)	no
COc1cc(C(=O)N2C[C@H]3CC[C@@H]2[C@@H]3N)cc2nc(-c3cc4cccc(-c5ccc(O)c(F)c5)c4n3CC3CC3)n(C)c12	yes
COc1cc(C(=O)N2C[C@H]3CC[C@@H]2[C@@H]3N)cc2nc(-c3cc4cccc(CC5CNC5)c4n3CC3CC3)n(C)c12	yes

Now for another entry.
In the record for COc1cc(C(=O)N2C[C@H]3CC[C@@H]2[C@@H]3N)cc2nc(-c3cc4cccc(C5CCN(C(=O)CO)CC5)c4n3CC3CC3)n(C)c12 , is IC50 less than 80 nM?
yes
